Origin of measurements: patent US20220401514A1

Test system: P. aeruginosa strain CFS-1292
TEST_METHOD_NOTES: MIC in presence of divalent cations (calcium chloride, magnesium sulfate)
Format: cell-based, Pseudomonas aeruginosa
RUN_PARAMETERS: CAA media + + 1 mM MgSO4
Just a reminder that ties go to F: only MIC strictly below 1 mg/L counts as T.

Study these solved cases before continuing.
seq_text="MRRRRLSRRTSRRFFRKGLKVRRRNLRARPMRGGFRI [Unp2]" category_label=T
seq_text="MKRRKLSKKKSRKIFTRGAVNVKKRNLRARPMRGGFRI [Chp10]" category_label=F
seq_text="MRLKMARRRYRLPRRRSRRLFSRTALRMHPRNRLRRIMRGGIRF [Chp2]" category_label=T

is_below(MIC, 1 mg/L) for MARSRRRMSKRSSRRSFRKYAKTHKKNFKARSMRGGIRL [Ecp3] ?
F

is_below(MIC, 1 mg/L) for MARRYRLSRRRSRRLFSRTALRMHRRNRLRRIMRGGIRF [Chp4] ?
T
